Target: Tyrosyl-tRNA synthetase, putative (Trypanosoma cruzi (strain CL Brener))
Sequence (whole entry): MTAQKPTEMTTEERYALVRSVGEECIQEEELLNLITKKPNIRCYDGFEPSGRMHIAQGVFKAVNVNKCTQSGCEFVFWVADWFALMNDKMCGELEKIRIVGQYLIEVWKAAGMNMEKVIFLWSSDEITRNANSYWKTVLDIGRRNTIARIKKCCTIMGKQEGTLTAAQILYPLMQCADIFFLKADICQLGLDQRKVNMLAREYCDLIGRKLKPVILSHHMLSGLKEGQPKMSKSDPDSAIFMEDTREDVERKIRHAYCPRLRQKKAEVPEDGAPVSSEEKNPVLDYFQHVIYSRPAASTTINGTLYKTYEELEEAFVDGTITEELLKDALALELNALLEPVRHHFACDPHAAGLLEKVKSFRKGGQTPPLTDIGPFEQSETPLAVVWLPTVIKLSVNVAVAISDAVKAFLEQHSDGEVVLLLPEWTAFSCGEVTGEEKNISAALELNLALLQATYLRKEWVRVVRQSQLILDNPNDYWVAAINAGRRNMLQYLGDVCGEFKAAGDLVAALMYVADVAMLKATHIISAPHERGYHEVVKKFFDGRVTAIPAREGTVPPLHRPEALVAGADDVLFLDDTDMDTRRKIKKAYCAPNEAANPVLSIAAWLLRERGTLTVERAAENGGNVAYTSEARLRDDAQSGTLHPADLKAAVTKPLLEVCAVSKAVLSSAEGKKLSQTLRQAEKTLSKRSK
Assay: Trypanosoma cruzi tyrosyl tRNA synthetase (TcYRS) _High Tyrosine SOP
Format: functional
Set-up: scale not given: in the data most compounds retested in dose-response had high values
Conditions: 30 µM
valueKind: Percent Effect (%)
State the answer as a number, implicitly in %.

### Prompt Item under review: CCNC(=O)c1ccc(CNCc2c(C)nn(C)c2N(C)C)cc1 . Reported Percent Effect?
### Response 4.74

### Prompt Can you look up the measured Percent Effect of CS(=O)(=O)NCc1nnc2n1CCN(Cc1cccs1)C2 for me?
### Response 5.41

### Prompt Look up Percent Effect for this compound: CNC(=O)C1CCN(C(=O)c2cccn2Cc2cccs2)CC1
### Response 6.8

### Prompt Query: Percent Effect; subject: Cn1cc(-c2nc(CN3CCc4c(ncn4C4CC4)C3)cs2)cn1
### Response 0.98

### Prompt Endpoint output: Percent Effect of Cc1cc(CN(C)C(=O)NC2CCS(=O)(=O)C2)no1 (centres undefined) . Value?
### Response 4.76

### Prompt Which Percent Effect reading was recorded for the compound CCN1CCC2(CCC(=O)N2Cc2cccc(C)n2)CC1 ?
### Response 7.73

### Prompt Query: Percent Effect; subject: COc1ccc2c(c1)CCCN2Cc1nc2c(cnn2C)c(=O)[nH]1
### Response 9.36

### Prompt I would be grateful if you could share the reported Percent Effect for Cc1nc(C2CCCN(C(=O)CO)C2)cc(N2CCOCC2)n1 (centres undefined) .
### Response 3.72

### Prompt What does the data say about its Percent Effect? Entry: Cc1[nH]ncc1C(=O)N1CCCC(n2cncn2)C1 (centres undefined)
### Response 1.04

### Prompt If you can, please state the reported Percent Effect value of O=C(c1ccco1)N1CCC2(CC1)C(=O)NCCN2CC1CC1 .
### Response 1.58

### Prompt So what's the measured Percent Effect for this one? CC(C)N1CC(C(=O)NCc2ccnc(-n3cccn3)c2)CC1=O (centres undefined)
### Response 5.26

### Prompt Using the record for c1nc2c(c(C3CC3)n1)CCN(Cc1ccoc1)CC2 , report its Percent Effect.
### Response 8.33

### Prompt # lookup: Percent Effect of CC(C)N(C)CCCNC(=O)c1cnc(-c2ccccc2)nc1
### Response 4.3

### Prompt For OCC1CCCN1c1cc(N2CCN(c3ccccn3)CC2)ncn1 (centres undefined) , what is its reported Percent Effect?
### Response 5.71

### Prompt Endpoint output: Percent Effect of Clc1ccc(-n2cc(CNC3CCc4ncnn4C3)cn2)cc1 (centres undefined) . Value?
### Response 2.08

### Prompt Form field: reported Percent Effect of CCc1noc(C(C)N2CCN(c3ccc(C#N)cc3F)CC2)n1 (centres undefined)
### Response 6.38

### Prompt Please report the recorded Percent Effect for CN1CCN(C(=O)c2ccc(=O)n(C)c2)c2ccccc21 .
### Response 16.8

### Prompt Can you share its Percent Effect? I mean this compound: CN(CC(F)(F)F)C(=O)C1CSCN1C(=O)OC(C)(C)C (centres undefined)
### Response 1.07

### Prompt Can you look up the measured Percent Effect of CC(Cn1cccn1)NC(=O)N1CCN(Cc2cccs2)CC1 (centres undefined) for me?
### Response 2.63

### Prompt Field request: Percent Effect | item: Cc1cc(NC(=O)NCCc2ccsc2)n(C)n1
### Response 1.05

### Prompt Endpoint output: Percent Effect of COc1ccc(C[C@H]2CN(C(=O)CN(C)C)CC[C@H]2OC)cc1 . Value?
### Response -8.7

### Prompt Which Percent Effect value is on record for CC(NC(=O)CCn1cncn1)c1nnc2n1CCCCC2 (centres undefined) ?
### Response 3.92

### Prompt Would you kindly share the measured Percent Effect for CC(C)n1cc(C(=O)N2Cc3ccccc3OC3(CCOCC3)C2)cn1 ?
### Response -3.23

### Prompt Reported Percent Effect, compound CCOc1ncccc1NC(=O)NC1CCN(S(C)(=O)=O)CC1 : ____
### Response 0.98

### Prompt Percent Effect lookup needed for O=C(Nc1ccc(CCN2CCC(O)CC2)cc1)Nc1cccnc1 , thanks.
### Response 6.88

### Prompt State the recorded Percent Effect for this entry: COCCOCc1cccc(NC(=O)N2CCCC2c2ccncc2)c1 (centres undefined)
### Response 6.67

### Prompt Suppose we examine the compound CN(C)C(=O)N1CCN(C(=O)C(c2ccccc2F)N(C)C)CC1 (centres undefined) ; what Percent Effect value has been reported?
### Response 4.21

### Prompt Look up Percent Effect for this compound: CCc1nc(CN2CCCC(NCc3nc4cccnc4[nH]3)C2)no1 (centres undefined)
### Response 10.3

### Prompt So what's the measured Percent Effect for this one? COCC(=O)N1CCC2(CC1)CCN(Cc1ccccn1)C2=O
### Response -2.63

### Prompt Look up Percent Effect for this compound: CCOC(=O)CNC(=O)c1cccnc1Oc1ccc(Cl)cc1
### Response 3.87

### Prompt Looking for the measured Percent Effect of Cc1cc(C)n(CC(=O)N(C)Cc2csc(-c3cccs3)n2)c(=O)n1 , can you help?
### Response 6.01

### Prompt Query (compound): CCN(CC)C(CNC(=O)c1ccc(S(C)(=O)=O)cc1)c1ccco1 (centres undefined) ; field requested: Percent Effect
### Response 8.91

### Prompt Fill blank: measured Percent Effect of the compound CCc1cc(C(=O)N2CCCC2c2nc(C)c(F)c(O)n2)on1 (centres undefined) is ____.
### Response 3.17

### Prompt Any idea what Percent Effect was measured for CCN(Cc1cccc2c1OCO2)C(=O)Nc1ccncc1 ?
### Response 0.98

### Prompt // lookup Percent Effect for COc1cc(CNCc2c(C)nn(C)c2N(C)C)ccc1C
### Response 5.42

### Prompt Bench note: what Percent Effect did O=C(NC1COC2(CCN(Cc3ccccn3)CC2)C1)c1ccccn1 (centres undefined) show?
### Response 10.6

### Prompt # Percent Effect lookup, item CCN1Cc2c(C(=O)NCC3CC3)ncn2-c2ccccc2S1(=O)=O
### Response 0

### Prompt I have this compound here, Cc1ccc2c(c1)CCC21CCN(C(=O)CO)CC1 , and I need its recorded Percent Effect.
### Response 4.3

### Prompt GET /values?readout=Percent Effect&item= Cn1nc(CNC(=O)C2COc3ccccc3O2)cc1C1CC1 (centres undefined)
### Response 0

### Prompt Given the compound COCC(=O)N1CCC(c2nccnc2Oc2cccnc2C)CC1 , what is its reported Percent Effect?
### Response 0

### Prompt Tell me the measured Percent Effect of Cc1ccc(NC(=O)C2=CN=S=N2)cc1 , please.
### Response 4.23

### Prompt Fill in the blank: the reported Percent Effect of CC(C)c1nc(CN(C)C2CCN(Cc3nc(C4CC4)no3)C2)no1 (centres undefined) is ____.
### Response 3.23

### Prompt Given the compound Cc1cc(N2CCN(Cc3nccn3C)CC2)cc(C)n1 , what is its reported Percent Effect?
### Response 0

### Prompt What does the record list as Percent Effect for COCC1CN(S(C)(=O)=O)Cc2ncn(CC3CC3)c21 (centres undefined) ?
### Response 4.3

### Prompt May I ask what Percent Effect has been recorded for CCC1CN(C(=O)NCCOc2ccc3c(c2)OCO3)CCO1 (centres undefined) ?
### Response 4.9

### Prompt Bench note: what Percent Effect did Cc1cnn(CC2CCCCN2Cc2nnc(-c3ccco3)o2)c1 (centres undefined) show?
### Response 8.37

### Prompt Could you share which Percent Effect value was measured for Cc1cnn(CC2CCCN2Cc2coc(-c3cccs3)n2)c1 (centres undefined) ?
### Response 2.15

### Prompt What value of Percent Effect has been reported for the following compound? O=C(NCCNc1ncccn1)C1CCN(CC(F)(F)F)CC1
### Response 7.39

### Prompt # get_value(readout='Percent Effect', item= CC(C)c1nc(C2CCCN(C(=O)c3ccc4nccn4c3)C2)no1 (centres undefined) )
### Response 1.91
